# TARGET: TPMT (Homo sapiens)
# Construct: T84 cDNA transiently expressed in COS-1 cells, plus native human kidney 100,000×g supernatant, partially purified kidney Peak I and T84 cell enzyme
# TEST_DESCRIPTION: Inhibition of TPMT, all sources of enzyme (summary in words)
# Assay type: biochemical
ENDPOINT_NAME: effect on TPMT activity (in words)

1) [Ca+2].[Cl-].[Cl-] [CaCl2] ... not affected
2) Nc1ncnc2c1ncn2[C@@H]1O[C@H](CSCC[C@H](N)C(=O)O)[C@@H](O)[C@H]1O [Ado-Hcy, S-adenosyl-L-homocysteine] ... inhibited
3) CCCC(C(=O)OCCN(CC)CC)(c1ccccc1)c1ccccc1 [SKF-525A] ... not affected
4) CC(N)c1cccc(Cl)c1Cl (stereo not drawn) [DCMB, 2,3-dichloro-α-methylbenzylamine] ... not affected
5) CCN(CC)Cc1cc(Nc2ccnc3cc(Cl)ccc23)ccc1O [Amodiaquine] ... not affected
6) CSc1ncnc2nc[nH]c12 [6-MMP, 6-methylmercaptopurine] ... inhibited

----------
Target chain: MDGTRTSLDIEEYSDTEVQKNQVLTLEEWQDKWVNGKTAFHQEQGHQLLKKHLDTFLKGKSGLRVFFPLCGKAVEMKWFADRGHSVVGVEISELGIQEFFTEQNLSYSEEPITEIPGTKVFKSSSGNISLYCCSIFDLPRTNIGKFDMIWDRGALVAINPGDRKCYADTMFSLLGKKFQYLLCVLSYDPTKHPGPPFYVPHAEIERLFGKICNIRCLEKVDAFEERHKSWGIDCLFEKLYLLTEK
pIC50: −log10 of the molar value.
ENDPOINT_NAME: pIC50

1) COc1cc(C(=O)O)cc(O)c1OC [DMHBA, 3,4-dimethoxy-5-hydroxybenzoic acid] ... 5.11
